Let's look at some compounds and their measured hERG current change (%, negative = inhibition) at 10uM.
- system_name: human ether-à-go-go-related gene (hERG) potassium channel (human);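 further: peak tail current of the secondary pulse compared with the same well before compound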
- Sequence (Q12809 whole entry, looked up): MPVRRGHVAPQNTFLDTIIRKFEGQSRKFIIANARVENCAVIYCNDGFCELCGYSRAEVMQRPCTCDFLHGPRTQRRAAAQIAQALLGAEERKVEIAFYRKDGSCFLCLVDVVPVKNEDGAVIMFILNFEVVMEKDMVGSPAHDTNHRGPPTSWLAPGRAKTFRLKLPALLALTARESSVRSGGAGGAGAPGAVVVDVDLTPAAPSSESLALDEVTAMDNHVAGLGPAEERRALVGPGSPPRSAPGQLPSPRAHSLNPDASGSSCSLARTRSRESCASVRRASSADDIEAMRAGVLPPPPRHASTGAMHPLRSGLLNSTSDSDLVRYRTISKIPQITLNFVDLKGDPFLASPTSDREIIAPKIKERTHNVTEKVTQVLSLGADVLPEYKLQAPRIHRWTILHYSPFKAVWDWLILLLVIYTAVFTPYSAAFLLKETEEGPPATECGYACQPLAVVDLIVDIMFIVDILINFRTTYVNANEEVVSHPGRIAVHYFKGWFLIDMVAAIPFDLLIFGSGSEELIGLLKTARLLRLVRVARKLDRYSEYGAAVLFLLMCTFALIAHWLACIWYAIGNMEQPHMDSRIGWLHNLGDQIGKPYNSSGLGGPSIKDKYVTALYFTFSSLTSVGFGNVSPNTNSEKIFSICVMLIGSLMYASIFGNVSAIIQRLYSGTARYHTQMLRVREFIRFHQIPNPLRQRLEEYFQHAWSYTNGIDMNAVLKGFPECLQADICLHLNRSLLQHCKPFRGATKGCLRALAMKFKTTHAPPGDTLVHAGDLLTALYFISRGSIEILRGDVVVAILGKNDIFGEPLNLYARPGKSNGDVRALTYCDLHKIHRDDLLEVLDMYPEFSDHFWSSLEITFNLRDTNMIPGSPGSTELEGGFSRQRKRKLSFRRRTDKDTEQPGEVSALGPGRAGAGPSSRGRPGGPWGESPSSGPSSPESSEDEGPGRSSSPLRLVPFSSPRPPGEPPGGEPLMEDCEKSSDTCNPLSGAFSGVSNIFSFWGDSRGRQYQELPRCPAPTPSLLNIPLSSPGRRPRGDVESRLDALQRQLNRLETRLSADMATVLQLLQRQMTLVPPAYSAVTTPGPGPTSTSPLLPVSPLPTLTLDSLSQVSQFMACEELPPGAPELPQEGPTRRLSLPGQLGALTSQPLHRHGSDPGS
- experimental_protocol: primary screen, population patch clamp on CHO cells stably expressing hERG; higher = less effect of the substance
The whole screen tested about 310,000 compounds, of which about 14,000 (4.5%) showed an effect of 50% or more. Effects have a minus sign here. Shown is part of a subset that was picked to be rich in strong results.
readout: hERG current change (%, negative = inhibition) at 10uM (%)

compound: CCc1cc(Cl)c(OC)c(C(=O)NC[C@@H]2CCCN2CC)c1O.Cl
value_observed: -59.2
//
compound: CCN(c1ccccc1)S(=O)(=O)c1ccc(Cl)c(NC(=O)CN2CCN(C)CC2)c1
value_observed: -59.2
//
compound: CCc1c(C)[nH]c2c1C(=O)C(CN1CCOCC1)CC2.Cl (stereo not drawn)
value_observed: -7.67
//
compound: O=C(C1=C[C@@H](C2CCCCC2)C[C@@H](OCCCCO)O1)N1CCN(Cc2ccccc2)CC1
value_observed: -50.1
//
compound: COc1ccc(C2Nc3ccccc3NC3=C2C(=O)CC(C)(C)C3)cc1O (stereo not drawn)
value_observed: 19
//
compound: CCN(c1ccccc1)S(=O)(=O)c1ccc(Cl)c(NC(=O)CN(C)C2CCN(C)CC2)c1
value_observed: -38.8
//
compound: CCN1CCCC1CNC(=O)c1cc2c(OC)cccc2[nH]1 (stereo not drawn)
value_observed: -20.8
//
compound: CN(CC(=O)Nc1ccc(Cl)c(C(F)(F)F)c1)C(=O)C1CC(=O)N(Cc2ccco2)C1 (stereo not drawn)
value_observed: -20.1
//
compound: O=C(C1=C[C@H](C2CCCCC2)C[C@H](OCc2ccc(CO)cc2)O1)N1CCN(Cc2ccccc2)CC1
value_observed: -67.6
//
compound: COc1cc2cc(CCCOC(=O)c3cccc(Br)c3)oc(=O)c2cc1OC
value_observed: -2.2
//
compound: O=C(C1=C[C@@H](C2CC2)C[C@@H](OCCCCO)O1)N1CCN(Cc2ccccc2)CC1
value_observed: 0.7
//
compound: CCc1cc(C(=O)c2ccc(OC)cc2)c(NC(=O)CN2CCN(C)CC2)s1
value_observed: -71.3
//
compound: O=S(=O)(Nc1ccccc1N1CCOCC1)c1ccc(F)c(Cl)c1
value_observed: -18.6
//
compound: Cc1ccc(OCc2ccccc2Br)c([N+](=O)[O-])n1
value_observed: 16.7
//
compound: O=c1c2c3c(sc2n(CCN2CCOCC2)c(=O)n1Cc1ccco1)CCCCC3
value_observed: -44.3
//
compound: CC(=O)Nc1ccc(N=Nc2ccccc2)cc1
value_observed: 8.44
//
compound: Cc1ccc(-n2cc(-c3ccccc3)c3c(N4CCN(C)CC4)ncnc32)cc1
value_observed: -9.95
//
compound: NC(=O)CCn1c(C(=O)c2ccc(Cl)cc2)c2ccccc2[n+]1[O-]
value_observed: -23.7
//
compound: COc1ccccc1N1CCN(S(=O)(=O)Cc2ccccc2Cl)CC1
value_observed: -2.74
//
compound: O=C(Cn1c(=O)n(Cc2ccco2)c(=O)c2c3c(sc21)CCCCC3)Nc1ccccc1
value_observed: 6.54
//
compound: CCCN(CC1CC1)C(=S)NC(=O)c1ccccc1Br
value_observed: -4.58
